Catalogue of Protein Binding (%) readings, one per entry.
molecular target: plasma protein; assay: plasma ultrafiltration (Centrifree), LC-MS/MS; peptide 1.0 uM
Starred links: 1 amine or outer side, 2 acyl side, 3 side chain; linkers in the order of their positions; H or OH if unused. Positions of bridges follow the written chain, without caps; N, C: chain ends. Non-standard residues stand in square brackets, D forms with d. dTyr(O-Me) = O-methyl-D-tyrosine, COc1ccc(C[C@@H](N[*:1])C(=O)[*:2])cc1; dPhe(4-Br) = N[C@H](Cc1ccc(Br)cc1)C(=O)O; dPhe(4-F) = N[C@H](Cc1ccc(F)cc1)C(=O)O; Cit = NC(=O)NCCC[C@H](N)C(=O)O; Nle = CCCC[C@H](N)C(=O)O; Aib = CC(C)(N)C(=O)O
Form entry: value (%) — number only.

Solved entries (count: 5):
[[record]]
binder = "Ac-RC[dA]R[dTyr(O-Me)]R[dW]C-NH2 (disulfide 2-8; SMILES COc1ccc(C[C@H]2NC(=O)[C@H](CCCNC(=N)N)NC(=O)[C@@H](C)NC(=O)[C@@H](NC(=O)[C@H](CCCNC(=N)N)NC(C)=O)CSSC[C@@H](C(N)=O)NC(=O)[C@@H](Cc3c[nH]c4ccccc34)NC(=O)[C@H](CCCNC(=N)N)NC2=O)cc1) [CTX-1238]"
value_kind = "Protein Binding (%)"
endpoint_result = 47

[[record]]
binder = "Ac-RC[dA]R[dPhe(4-F)]R[dW]C-NH2 (disulfide 2-8) [CTX-1236]"
value_kind = "Protein Binding (%)"
endpoint_result = 49

[[record]]
binder = "Ac-R[Nle]CR[dF]RWC-NH2 (disulfide 3-8; SMILES CCCC[C@H](NC(=O)[C@H](CCCNC(=N)N)NC(C)=O)C(=O)N[C@H]1CSSC[C@@H](C(N)=O)NC(=O)[C@H](Cc2c[nH]c3ccccc23)NC(=O)[C@H](CCCNC(=N)N)NC(=O)[C@@H](Cc2ccccc2)NC(=O)[C@H](CCCNC(=N)N)NC1=O) [CTX-1228]"
value_kind = "Protein Binding (%)"
endpoint_result = 39

[[record]]
binder = "Ac-RC[dA]R[dF]RWC-NH2 (disulfide 2-8; SMILES CC(=O)N[C@@H](CCCNC(=N)N)C(=O)N[C@H]1CSSC[C@@H](C(N)=O)NC(=O)[C@H](Cc2c[nH]c3ccccc23)NC(=O)[C@H](CCCNC(=N)N)NC(=O)[C@@H](Cc2ccccc2)NC(=O)[C@H](CCCNC(=N)N)NC(=O)[C@@H](C)NC1=O) [CTX-1211]"
value_kind = "Protein Binding (%)"
endpoint_result = 63

[[record]]
binder = "Ac-RC[Aib]R[dPhe(4-Br)]R[dW]C-NH2 (disulfide 2-8; SMILES CC(=O)N[C@@H](CCCNC(=N)N)C(=O)N[C@H]1CSSC[C@@H](C(N)=O)NC(=O)[C@@H](Cc2c[nH]c3ccccc23)NC(=O)[C@H](CCCNC(=N)N)NC(=O)[C@@H](Cc2ccc(Br)cc2)NC(=O)[C@H](CCCNC(=N)N)NC(=O)C(C)(C)NC1=O) [CTX-1246]"
value_kind = "Protein Binding (%)"
endpoint_result = 44


Reported Protein Binding (%), binder Ac-RC[dA][Cit][dF]RWC-NH2 (disulfide 2-8) [CTX-1285] : ____
39

Cool, now Ac-RCAR[dF]R[dW]C-NH2 (disulfide 2-8) [CTX-1268]
58

Cool, now Ac-RC[dA]R[dPhe(4-Br)]RFC-NH2 (disulfide 2-8; SMILES CC(=O)N[C@@H](CCCNC(=N)N)C(=O)N[C@H]1CSSC[C@@H](C(N)=O)NC(=O)[C@H](Cc2ccccc2)NC(=O)[C@H](CCCNC(=N)N)NC(=O)[C@@H](Cc2ccc(Br)cc2)NC(=O)[C@H](CCCNC(=N)N)NC(=O)[C@@H](C)NC1=O) [CTX-1258]
50

Cool, now Ac-R[Nle]CH[dF]RWC-NH2 (disulfide 3-8; SMILES CCCC[C@H](NC(=O)[C@H](CCCNC(=N)N)NC(C)=O)C(=O)N[C@H]1CSSC[C@@H](C(N)=O)NC(=O)[C@H](Cc2c[nH]c3ccccc23)NC(=O)[C@H](CCCNC(=N)N)NC(=O)[C@@H](Cc2ccccc2)NC(=O)[C@H](Cc2c[nH]cn2)NC1=O) [CTX-1227]
47

Sourced from patent US20240391954A1
